# System: TNF-α converting enzyme (TACE) (Homo sapiens, UniProt P78536)
# Sequence (P78536 215-824, species assumed): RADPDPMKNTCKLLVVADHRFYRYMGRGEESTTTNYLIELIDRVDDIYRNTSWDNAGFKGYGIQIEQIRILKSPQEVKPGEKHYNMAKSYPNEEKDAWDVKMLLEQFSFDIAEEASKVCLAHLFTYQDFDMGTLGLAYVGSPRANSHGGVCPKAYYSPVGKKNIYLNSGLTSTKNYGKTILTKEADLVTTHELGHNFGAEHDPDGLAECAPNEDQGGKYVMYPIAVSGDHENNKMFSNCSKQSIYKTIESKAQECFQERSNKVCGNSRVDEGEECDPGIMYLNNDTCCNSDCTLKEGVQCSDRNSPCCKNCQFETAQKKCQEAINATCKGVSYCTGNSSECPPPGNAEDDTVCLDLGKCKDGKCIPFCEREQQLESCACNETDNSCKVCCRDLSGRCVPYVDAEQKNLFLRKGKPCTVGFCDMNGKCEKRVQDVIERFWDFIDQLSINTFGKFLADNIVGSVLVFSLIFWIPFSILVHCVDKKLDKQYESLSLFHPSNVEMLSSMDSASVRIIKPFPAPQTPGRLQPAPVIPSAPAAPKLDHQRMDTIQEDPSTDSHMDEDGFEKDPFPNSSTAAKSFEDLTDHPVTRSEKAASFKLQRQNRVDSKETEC
# Assay Procedure: TACE inhibition (fluorescent peptidyl substrate)
# Assay type: biochemical
# Assay Setup: read-out: IC50 (nM) or % Inhibition (µM) TACE
Metric: IC50 (nM)

1 = Cc1cc(Br)cc(C(=O)NO)c1N(C)S(=O)(=O)c1ccc(OCC#CCNCCN(C)C)cc1
2 = CC#CCOc1ccc(S(=O)(=O)N(C)c2c(CN3CCN(C)CC3)cc(-c3ccccc3)cc2C(=O)NO)cc1
Query: Please indicate which has the smaller reported IC50: 1 , or 2 . I would appreciate it if you answered with the label of your choice.
Result: 2
(2: 42 nM, 1: 127 nM)

P = Cc1cc(Br)cc(C(=O)NO)c1N(C)S(=O)(=O)c1ccc(OCC#CCNC2CCC2)cc1
Q = Cc1cc(Br)cc(C(=O)NO)c1N(C)S(=O)(=O)c1ccc(OCC#CCNCCCN(C)C)cc1
R = C#CC(C)Oc1ccc(S(=O)(=O)N(C)c2c(C)cc(Br)cc2C(=O)NO)cc1 (stereo not drawn)
Query: Sort (3 molecules) by IC50: min first. Please express your ranking as an ordered list of the labels.
Result: Q, P, R
